Field: REL TO WT, BEFORE PEG MODIFICATION. Provide a value for each of the molecules that follow.
- Test target: Thrombin (Homo sapiens, UniProt P00734)
- Experimental details: thrombin inhibition activity assay (D.4), specific activity
- Type: biochemical
- Condition parameters: before PEG modification; activity relative to wild type PN-1
Answer with the value's number alone.

Quick check: REL TO WT, BEFORE PEG MODIFICATION of H252C (conjugate, UniProt P07093 20-398, looked up, variant H252C, PEG) Glia-derived nexin: SHFNPLSLEELGSNTGIQVFNQIVKSRPHDNIVISPHGIASVLGMLQLGADGRTKKQLAMVMRYGVNGVGKILKKINKAIVSKKNKDIVTVANAVFVKNASEIEVPFVTRNKDVFQCEVRNVNFEDPASACDSINAWVKNETRDMIDNLLSPDLIDGVLTRLVLVNAVYFKGLWKSRFQPENTKKRTFVAADGKSYQVPMLAQLSVFRCGSTSAPNDLWYNFIELPYHGESISMLIALPTESSTPLSAIIPCISTKTIDSWMSIMVPKRVQVILPKFTAVAQTDLKEPLKVLGITDMFDSSKANFAKITTGSENLHVSHILQKAKIEVSEDGTKASAATTAILIARSSPPWFIVDRPFLFFIRHNPTGAVLFMGQINKP ?
0.20

Quick check: REL TO WT, BEFORE PEG MODIFICATION of D147C (conjugate, UniProt P07093 20-398, looked up, variant D147C, PEG) Glia-derived nexin: SHFNPLSLEELGSNTGIQVFNQIVKSRPHDNIVISPHGIASVLGMLQLGADGRTKKQLAMVMRYGVNGVGKILKKINKAIVSKKNKDIVTVANAVFVKNASEIEVPFVTRNKDVFQCEVRNVNFEDPASACDSINAWVKNETRDMICNLLSPDLIDGVLTRLVLVNAVYFKGLWKSRFQPENTKKRTFVAADGKSYQVPMLAQLSVFRCGSTSAPNDLWYNFIELPYHGESISMLIALPTESSTPLSAIIPHISTKTIDSWMSIMVPKRVQVILPKFTAVAQTDLKEPLKVLGITDMFDSSKANFAKITTGSENLHVSHILQKAKIEVSEDGTKASAATTAILIARSSPPWFIVDRPFLFFIRHNPTGAVLFMGQINKP ?
0.125

Quick check: REL TO WT, BEFORE PEG MODIFICATION of N85C (conjugate, UniProt P07093 20-398, looked up, variant N85C, PEG) Glia-derived nexin: SHFNPLSLEELGSNTGIQVFNQIVKSRPHDNIVISPHGIASVLGMLQLGADGRTKKQLAMVMRYGVNGVGKILKKINKAIVSKKCKDIVTVANAVFVKNASEIEVPFVTRNKDVFQCEVRNVNFEDPASACDSINAWVKNETRDMIDNLLSPDLIDGVLTRLVLVNAVYFKGLWKSRFQPENTKKRTFVAADGKSYQVPMLAQLSVFRCGSTSAPNDLWYNFIELPYHGESISMLIALPTESSTPLSAIIPHISTKTIDSWMSIMVPKRVQVILPKFTAVAQTDLKEPLKVLGITDMFDSSKANFAKITTGSENLHVSHILQKAKIEVSEDGTKASAATTAILIARSSPPWFIVDRPFLFFIRHNPTGAVLFMGQINKP ?
0.066

Quick check: REL TO WT, BEFORE PEG MODIFICATION of N304C (conjugate, UniProt P07093 20-398, looked up, variant N304C, PEG) Glia-derived nexin: SHFNPLSLEELGSNTGIQVFNQIVKSRPHDNIVISPHGIASVLGMLQLGADGRTKKQLAMVMRYGVNGVGKILKKINKAIVSKKNKDIVTVANAVFVKNASEIEVPFVTRNKDVFQCEVRNVNFEDPASACDSINAWVKNETRDMIDNLLSPDLIDGVLTRLVLVNAVYFKGLWKSRFQPENTKKRTFVAADGKSYQVPMLAQLSVFRCGSTSAPNDLWYNFIELPYHGESISMLIALPTESSTPLSAIIPHISTKTIDSWMSIMVPKRVQVILPKFTAVAQTDLKEPLKVLGITDMFDSSKACFAKITTGSENLHVSHILQKAKIEVSEDGTKASAATTAILIARSSPPWFIVDRPFLFFIRHNPTGAVLFMGQINKP ?
0.11
